Molecular target: UniProtKB O14842
Assay: Cell-based aequorin assay using human GPR40
Details: CHO cells transfected with GPR40 and aequorin expression vectors; aequorin luminescence; activation of human GPR40; read-out: Relative EC50
pEC50: −log10 of the molar value.
pEC50 by entry:

# count of solved cases: 3
| molecule | result |
| --- | --- |
| CN1C(=O)c2cc(OCc3cccc(-c4ccc(C(F)(F)F)cc4)c3)ccc2C1CC(=O)O (racemic) [Example 70] | 5.00 to 6.00 |
| O=C(O)CC1CCCc2cc(CCc3ccc(C(F)(F)F)cc3)ccc21 (centres unmarked) [Example 48] | 5.00 to 6.00 |
| O=C(O)CC1CCc2ccc(OCc3cccc(-c4ccc(C(F)(F)F)cc4)c3)cc2C1 (centres unmarked) [Example 20] | 5.00 to 6.00 |

Kindly note the recorded pEC50 for C=C1COc2cc(OCc3ccc(-c4cc(C)ccc4OCCCC)cc3)ccc2[C@H]1CC(=O)O [Example 36] , which is > 7.00

Documented pEC50 of CCCCOc1ccc(C)cc1-c1ccc(COc2ccc3c(c2)C(CC(=O)O)CCC3)cc1 (centres unmarked) [Example 18] : 5.00 to 6.00

get_value(item= Cc1c(Cl)cccc1-c1cccc(COc2ccc3c(c2)C(=O)N(C)C3CC(=O)O)c1 (racemic) [Example 69] , readout=pEC50) returns 6.00 to 7.00

For record O=C(O)C1CCc2cc(OCCOc3cccc(C(F)(F)F)c3)ccc2C1 (centres unmarked) [Example 30] the listed pEC50 is 5.00 to 6.00

Kindly note the recorded pEC50 for Cc1ccc(-c2nc(C)c(COc3ccc4c(c3)CCC[C@H]4CC(=O)O)s2)cc1 [Example 5] , which is > 7.00

====

Listed here are molecules together with their documented EC50.
Target: human GPR40 (Homo sapiens)
Sequence (O14842 whole entry): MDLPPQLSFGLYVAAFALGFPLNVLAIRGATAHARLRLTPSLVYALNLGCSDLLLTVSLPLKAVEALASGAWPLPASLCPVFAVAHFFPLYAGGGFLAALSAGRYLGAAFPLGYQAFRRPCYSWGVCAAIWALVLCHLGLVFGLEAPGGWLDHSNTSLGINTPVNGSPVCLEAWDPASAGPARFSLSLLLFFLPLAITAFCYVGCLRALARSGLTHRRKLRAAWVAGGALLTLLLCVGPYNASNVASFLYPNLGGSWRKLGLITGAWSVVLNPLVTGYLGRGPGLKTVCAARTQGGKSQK
Assay: Cell-based aequorin assay using human GPR40
Conditions: CHO cells transfected with GPR40 and aequorin expression vectors; aequorin luminescence; activation of human GPR40; read-out: Relative EC50

In the examples that follow, each entry is paired with its recorded EC50.
| molecule | EC50 |
| --- | --- |
| Cc1ccc(-c2nc(C)c(COc3ccc4c(c3)CC(C)C4CC(=O)O)s2)cc1 (mixture of isomers) | 1000 to 10000 nM |
| CCCCOc1ccc(C)cc1-c1ccc(COc2ccc3c(c2)CCC(C(=O)O)C3)cc1 (racemic) | 100 to 1000 nM |
| O=C(O)C(F)(F)C1CCCc2cc(OCc3cccc(-c4ccc(C(F)(F)F)cc4)c3)ccc21 (centres unmarked) | 1000 to 10000 nM |
| Cc1ccc(-c2nc(C)c(COc3ccc4c(c3)OCC[C@@H](C(=O)O)C4)s2)cc1 | 100 to 1000 nM |
| Cc1cc(Cl)ccc1-c1cccc(COc2ccc3c(c2)C(=O)N(C)C3CC(=O)O)c1 (racemic) | 100 to 1000 nM |

// returns EC50 for CCCCOc1ccc(C)cc1-c1ccc(COc2ccc3c(c2)CCCC3CC(=O)O)cc1 (racemic) with human GPR40 (Homo sapiens); value = 100 to 1000 nM

Kindly note: human GPR40 (Homo sapiens), CCOc1ccc(F)c(-c2ccc(COc3ccc4c(c3)CCC(C(=O)O)C4)cc2)c1 (racemic) , EC50 value reported: 1000 to 10000 nM

Kindly note: human GPR40 (Homo sapiens), CCCCOc1ccc(C)cc1-c1ccc(COc2ccc3c(c2)OCC(C)C3CC(=O)O)cc1 (racemic) , EC50 value reported: 100 to 1000 nM
